# maps each entry to its growth
System: HT29 colon
test name: NCI-60 one-dose screen, 48 h (100 = growth as untreated, 0 = no growth, -100 = all killed)
measurement parameters: 10 µM unless noted
Compounds without any hit were thinned out: in the full panel of roughly 83,000, 20% have a hit.
Entry rule: numbers only, all in %.

Take a look at these entries with their results.
- Cc1ccc(Cn2c(N3CCC(C(=O)NCc4cccs4)CC3)nc3ccccc32)cc1: 48.6
- CCN(CC)CCNC(=O)C(Cl)=C1C(Cl)=C(Cl)C(Cl)=C1Cl: 41.3

Next compound, growth to be filled in.
I am curious: what growth value has been reported for O=C1Nc2ccccc2/C1=C/c1cccs1 ? 110

###

Tested on: SK-OV-3 ovarian
test name: NCI-60 one-dose screen, 48 h (100 = growth as untreated, 0 = no growth, -100 = all killed)
measurement parameters: 10 µM unless noted
The panel holds about 83,000 compounds, 20% with a hit somewhere; the sample as a whole holds those more often.
quantity kind: growth (%)
Entry rule: numbers only, all in %.

- Nc1ccc(-c2nn3c(CCC(=O)c4nc5ncccc5[nH]4)nnc3s2)c(O)c1: 91.4

SK-OV-3 ovarian / growth / CCOc1ccc2c(c1)CN(Cc1ccc(Cl)cc1)CO2 : value? 13.5

SK-OV-3 ovarian / growth / Cc1[nH]c2ccccc2c(=O)c1CC=C(Cl)Cl : value? 86.5

SK-OV-3 ovarian / growth / O=C(Nc1ncc(Cc2cccc(C(F)(F)F)c2)s1)C1COc2ccccc2O1 (stereo unspecified) : value? 100

SK-OV-3 ovarian / growth / O=c1c2cc(F)cc(Cl)c2sc2c(Cl)nc3ccccc3c12 : value? 95

SK-OV-3 ovarian / growth / O=c1[nH]nnc2c1ncn2C1OC(CO)C(O)C1O (stereo unspecified) : value? 14.5

SK-OV-3 ovarian / growth / CCOC(=O)c1ccc2[nH]c(-c3ccccc3)cc(=O)c2c1 : value? 112

SK-OV-3 ovarian / growth / COc1ccc(C(=O)C2CC2c2ccc(Cl)cc2)cc1 (stereo unspecified) : value? 104

SK-OV-3 ovarian / growth / O=c1oc2ccc(F)cc2c(=O)n1-c1ccc(Br)cc1F : value? -3.03

###

Test system: SR leukemia
test name: NCI-60 one-dose screen, 48 h
measurement parameters: 10 µM unless noted
This is part of a sample that, as a whole, favours compounds with a hit. Of some 83,000 tested, about 20% had one in any assay. The source made the active and inactive calls. Rule for the calls: active = growth percent below 10; inactive = the rest.
// one of active, inactive, no free text

• COC(=O)/C(CCC=C(C)C)=C1\[C@@H](OC(C)=O)C[C@@]2(C)[C@H]1CC(=O)[C@H]1[C@@]3(C)CC[C@H](NCc4ccccc4)[C@@H](C)[C@@H]3CC[C@@]12C = active
• COc1ccc(/C=C2\SC(=Nc3ccccc3)NC2=O)cc1 = active
• Fc1cccc(COc2ccc(Nc3ncnc4onc(-c5ccccc5)c34)cc2)c1 = inactive
• COc1ccc(-c2cn[nH]c2-c2cc(OC)c(OC)c(OC)c2)cc1OCc1ccccc1 = inactive
• COc1ccc(OC)c(N(CCN2C(=O)c3ccccc3C2=O)C(=O)CCl)c1 = active

Could you check what this test reported for O=C(Nc1ccc(F)c(Cl)c1)Nc1ccc(Cl)c(Cl)c1 ? inactive

Could you check what this test reported for CCN(CC)CCNC(=O)C(Cl)=C1C(Cl)=C(Cl)C(Cl)=C1Cl ? inactive

Could you check what this test reported for CN1C(=O)N(C)C2(c3ccccc3)n3c(s/c(=C\c4ccccc4)c3=O)=NNC12c1ccccc1 (configuration not stated) ? inactive

Could you check what this test reported for O=C(Nc1ccccc1O)c1ccc(Oc2cccc(C(=O)Nc3ccccc3O)c2)cc1 ? active

Could you check what this test reported for COc1cccc2c(=O)c3c(sc12)c(NCCCNCCO)nc1ccccc13 ? active

Could you check what this test reported for Nc1ccc(C2c3ccccc3Oc3ccccc32)cc1 ? inactive

Could you check what this test reported for NCCOc1ccccc1/C=C1\c2ccccc2-c2ccc([N+](=O)[O-])cc21 ? active

###

Test system: COLO 205 colon
test name: NCI-60 one-dose screen, 48 h (100 = growth as untreated, 0 = no growth, -100 = all killed)
measurement parameters: 10 µM unless noted
Compounds without any hit were thinned out: in the full panel of roughly 83,000, 20% have a hit.
# maps each entry to its growth
Entry rule: numbers only, all in %.

Take a look at these entries with their results.
- O=c1oc2ccc(Br)cc2c(=O)n1-c1ccc(I)cc1F: 51.2
- CN1CCN(Cc2ccc(NC(=O)c3cncc(C#Cc4nc(N)nc5[nH]ncc45)c3)cc2C(F)(F)F)CC1: 21.6
- COc1cc(-c2c3c(cn2S(=O)(=O)c2ccccc2)-c2nc(N)sc2CC3)cc(OC)c1OC: -1.14
- COc1ccc(CCN2C(=O)CCSC2=S)cc1OC: 114
- CCCCCCCCCCOC(=O)c1ccccc1C(=O)OCCCC: 117

I am curious: what growth value has been reported for COc1ccc(/C=C/C(=O)c2c(C)nc3ccccc3c2/C=C/c2ccccc2)c(OC)c1 ? 94.7

I am curious: what growth value has been reported for COc1cc(C#N)cc2[nH]c(=O)oc12 ? 105

I am curious: what growth value has been reported for Cc1cccc(NC(=O)c2sc3nc4c(cc3c2N)CCCC4)c1C ? -38

###

System: CCRF-CEM leukemia
test name: NCI-60 one-dose screen, 48 h (100 = growth as untreated, 0 = no growth, -100 = all killed)
measurement parameters: 10 µM unless noted
About 83,000 compounds went through this panel and 20% of them were active in at least one assay; those are over-represented in the sample as a whole.
quantity kind: growth (%)
Entry rule: numbers only, all in %.

- CN(C)CCNc1cc(-c2ccccc2)nc2ccccc12: -9.11
- O=C(Nc1ccc(N2CCNCC2)cc1)c1[nH]ncc1Nc1cc(Oc2ccccc2)ncn1: -27.5
- O=C(O)CCCN1C(=O)C2C3CCC(C3)C2C1=O (centres undefined): 108
- Cc1ccc2sc3c(NCCCNCCO)nc4ccccc4c3c(=O)c2c1: 10.8
- O=C(NN1C(=O)CSC1c1ccc(Cl)cc1)c1[nH]c2ccc(F)cc2c1-c1ccccc1 (centres undefined): 34.3

Next compound, growth to be filled in.
I am curious: what growth value has been reported for COc1ccc(Cn2c(Br)c3c(c2-c2cc(OC)c(OC)c(OC)c2)CCc2sc(NC(C)=O)nc2-3)cc1 ? 16.9

###

# maps each entry to its growth
Test system: 786-0 renal
test name: NCI-60 one-dose screen, 48 h (100 = growth as untreated, 0 = no growth, -100 = all killed)
measurement parameters: 10 µM unless noted
Compounds without any hit were thinned out: in the full panel of roughly 83,000, 20% have a hit.
Entry rule: numbers only, all in %.

Take a look at these entries with their results.
* OCCNc1nc(Nc2ccc(C3=NN(c4cc(Cl)cc(Cl)c4)C(c4ccc(C(F)(F)F)cc4)C3)cc2)nc(N2CCOCC2)n1 (stereo not drawn) | 42.7
* CCOC(=O)CSc1c(-c2ccccc2)c2cc(Cl)ccc2[nH]c1=O | 97.1

Next molecule, growth to be filled in.
I am curious: what growth value has been reported for CCN1CCN(C(=S)SCC(=O)Nc2nc3ccc(C)cc3s2)CC1 ? 118

###

# maps each entry to its growth
Tested on: LOX IMVI melanoma
test name: NCI-60 one-dose screen, 48 h (100 = growth as untreated, 0 = no growth, -100 = all killed)
measurement parameters: 10 µM unless noted
The panel holds about 83,000 compounds, 20% with a hit somewhere; the sample as a whole holds those more often.
Entry rule: numbers only, all in %.

• COc1ccc(C2C3=C(COC3=O)N(CCO)c3cc4c(cc32)CCC4)cc1OC (stereo not given) = 44
• CCOC(=O)c1ccc(N=Cc2sc(=O)[nH]c2O)cc1 = 93.6
• CCCc1c(C)c2sc(=O)[nH]c2[nH]c1=O = 100

LOX IMVI melanoma / growth / Cc1ccc(Nc2nc(N)c3ccccc3n2)cc1Cl : value? 40.4

LOX IMVI melanoma / growth / O=C(Cn1cc(COc2ncnc3c2cnn3-c2ccccc2)nn1)Nc1ccccn1 : value? 93.8

###

Tested on: OVCAR-8 ovarian
test name: NCI-60 one-dose screen, 48 h (100 = growth as untreated, 0 = no growth, -100 = all killed)
measurement parameters: 10 µM unless noted
This is part of a sample that, as a whole, favours compounds with a hit. Of some 83,000 tested, about 20% had one in any assay.
# maps each entry to its growth
Entry rule: numbers only, all in %.

Take a look at these entries with their results.
• COC(=O)/C(CCC=C(C)C)=C1\[C@@H](OC(C)=O)C[C@@]2(C)[C@H]1C[C@@H](O)[C@H]1[C@@]3(C)CC[C@H](NCc4ccccc4)[C@@H](C)[C@@H]3CC[C@@]12C = 76.1
• c1ccc(-c2ccc(-c3nc4ccccc4[nH]3)cc2)cc1 = 89.4
• Cn1c(/C=C(\C#N)c2ccccc2)nc2c(N3CCOCC3)nc(Cl)nc21 = 8.78
• COc1nccc2cc3c(=O)n4c(cc5ccccc54)c(=O)n3c12 = 111
• COc1ccc(-c2nocc2-c2cccs2)cc1 = 110
• O=C(Nc1ccc(F)cc1F)c1cc(I)ccc1O = 11.8
• COc1cc(/C=C/C(=O)c2ccc(Nc3nc(NCCO)nc(N4CCOCC4)n3)cc2)cc(OC)c1OC = 11.6
• Clc1ccc(COc2ccc(Nc3ncnc4onc(-c5ccccc5)c34)cc2)cc1 = 92.2

Next molecule, growth to be filled in.
I am curious: what growth value has been reported for CC(=O)O[C@@H]1/C=C/C(=O)N[C@@H](C)CCC/C=C/[C@@H]2CCC[C@H]21 ? 99.4

Recorded values, source PubChem BioAssay (NCI).
